Numbers sourced from patent US20220096398A1.

MEASUREMENT PROTOCOL: Pharmacokinetic parameters after oral gavage in Sprague Dawley rats
Format: in vivo, male Sprague Dawley rats
CONDITION PARAMETERS: male, Sprague Dawley, plasma, rat, 10 mg/kg
MEASUREMENT KIND: Cmax (ng/mL)

- CC(C)(Sc1cc(C(C)(C)C)c(O)c(C(C)(C)C)c1)Sc1cc(C(C)(C)C)c(O)c(C(C)(C)C)c1 [PB, Probucol]: 30.9

----------
MEASUREMENT PROTOCOL: Pharmacokinetic parameters after oral gavage in Sprague Dawley rats
Assay type: in vivo, male Sprague Dawley rats
CONDITION PARAMETERS: male, Sprague Dawley, plasma, rat, 10 mg/kg
MEASUREMENT KIND: half-life (min)

- CC(C)(Sc1cc(C(C)(C)C)c(O)c(C(C)(C)C)c1)Sc1cc(C(C)(C)C)c(O)c(C(C)(C)C)c1 [PB, Probucol]: 1180

----------
MEASUREMENT PROTOCOL: Pharmacokinetic parameters after oral gavage in Sprague Dawley rats
Format: in vivo, male Sprague Dawley rats
CONDITION PARAMETERS: male, Sprague Dawley, plasma, rat, 10 mg/kg
MEASUREMENT KIND: Tmax (h)

• CC(C)(Sc1cc(C(C)(C)C)c(O)c(C(C)(C)C)c1)Sc1cc(C(C)(C)C)c(O)c(C(C)(C)C)c1 = 8
